Biological target: T1, human PSMA (Prostate Specific Membrane Antigen, Glutamate Carboxypeptidase II) on cells (human, UniProt Q04609 1-750)
T1 construct: whole, on cells; the cell line is named under assay; also called cell surface expressed PSMA; FOLH1
T1 sequence (Q04609 whole entry): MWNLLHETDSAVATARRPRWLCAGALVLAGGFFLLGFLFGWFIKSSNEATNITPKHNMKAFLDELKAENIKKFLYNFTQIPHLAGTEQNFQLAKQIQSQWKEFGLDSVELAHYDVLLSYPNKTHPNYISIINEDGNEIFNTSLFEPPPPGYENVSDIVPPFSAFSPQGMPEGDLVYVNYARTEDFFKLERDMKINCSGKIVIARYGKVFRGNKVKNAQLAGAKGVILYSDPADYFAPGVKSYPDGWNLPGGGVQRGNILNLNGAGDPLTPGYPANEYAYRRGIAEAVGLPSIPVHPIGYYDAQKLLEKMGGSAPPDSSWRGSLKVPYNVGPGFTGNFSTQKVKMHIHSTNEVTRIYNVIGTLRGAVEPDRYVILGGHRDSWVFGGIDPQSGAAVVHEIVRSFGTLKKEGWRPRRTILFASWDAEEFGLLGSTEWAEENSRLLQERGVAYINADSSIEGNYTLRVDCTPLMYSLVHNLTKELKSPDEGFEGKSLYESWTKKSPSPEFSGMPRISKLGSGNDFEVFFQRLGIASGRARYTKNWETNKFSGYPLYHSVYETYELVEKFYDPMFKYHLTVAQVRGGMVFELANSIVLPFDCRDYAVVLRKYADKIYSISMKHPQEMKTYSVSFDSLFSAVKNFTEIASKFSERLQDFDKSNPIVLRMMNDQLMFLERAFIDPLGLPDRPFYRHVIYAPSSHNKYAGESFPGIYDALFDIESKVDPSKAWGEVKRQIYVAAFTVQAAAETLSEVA
Assay: flow cytometry on LNCaP cells
Protocol: Briefly, 50,000 target cells were stained with a dilution series of purified UniAbs™ for 30 minutes at 4° C. […] After a 20-minute incubation at 4° C., the cells were washed twice with flow cytometry buffer and the mean fluorescence intensity (MFI) was measured by flow cytometry. […] In some experiments EC50 values were calculated using GraphPad Prism 7.
assay_readout: fold over the background MFI signal (fold over background)

# binder, unit_of_measure, measured_number
rows = [
    ("anti-PSMA heavy chain antibody clone ID 326116 (antibody, V domains shown, heavy chain-only antibody (UniAb), no light chain) VH: QVQLVESGGGVVQPGRSLRLSCAASGFSFSRYGMHWVRQAPGKGLEGVAVISYDGSNKYYADSVKGRFTISRDYSKNTLYLQMNSLRAEDTAVYYCAREPRIGYYYDSSGYDSLDYRGQGTLVTVSS", "fold over background", 38),
    ("anti-PSMA heavy chain antibody clone ID 345482 (antibody, V domains shown, heavy chain-only antibody (UniAb), no light chain) VH: QVQLVESGGGVVQPGRSLRLSCAASGFSFSSYGMHWVRQAPGKGLEGVAVIWYDGSNRYYADSVKGRFTISRDSSKNTLYLQMNSLRAEDTAVYYCAREPRIGYYYESSGYYSLDYRGQGTLVTVSS", "fold over background", 80),
]
